Reference source: ChEMBL document CHEMBL5131529

- Target System: GTPase KRas (Homo sapiens, UniProt P01116, G12C)
- Sequence (P01116 whole entry G12C): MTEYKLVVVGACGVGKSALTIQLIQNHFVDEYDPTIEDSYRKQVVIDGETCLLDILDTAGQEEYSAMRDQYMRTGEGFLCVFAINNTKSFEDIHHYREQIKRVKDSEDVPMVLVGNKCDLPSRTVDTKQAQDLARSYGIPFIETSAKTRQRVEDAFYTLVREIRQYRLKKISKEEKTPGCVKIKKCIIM
- Protocol: Inhibition of KRAS G12C mutant in human MIA PaCa-2 cells assessed as reduction in ERK phosphorylation incubated for 2 to 4 hrs by HTRF assay
- Type: cell-based
Listed molecules paired with reported IC50
Form entry: enter the amount, then its unit.

Recorded IC50, per entry:
Molecule | IC50
C=Cc1ncc2n1CCN(c1nc(OC[C@@H]3CCCN3C)nc3c(F)c(-c4cc(O)cc5ccccc45)c(Cl)cc13)C2 | 1 µM
C=Cc1ncc2n1CCN(c1nc(OCC3CCCN3C)nc3c(F)c(-c4c(C)ccc5[nH]ncc45)c(Cl)cc13)C2 (stereo unspecified) | 5 µM
C=Cc1ncc2n1CCN(c1nc(=O)n(-c3c(C)ccnc3C(C)C)c3nc(-c4c(O)cccc4F)c(F)cc13)C2 | 5 µM

[in] What does the data say about its IC50? Entry: `C=Cc1ncc2n1CCN(c1nc(OCCN(C)C)nc3c(F)c(-c4cc(O)cc5ccccc45)c(Cl)cc13)C2`
[out] 1 µM

[in] Look at this molecule and give its reported IC50. `C=Cc1ncc2n1CCN(c1nc(=O)n(CC3CC3)c3nc(-c4c(O)cccc4F)c(F)cc13)C2`
[out] 5 µM

[in] Need IC50 of C=Cc1ncc2n1CCN(c1nc(OC3CCCN(C)C3)nc3c(F)c(-c4cc(O)cc5ccccc45)c(Cl)cc13)C2 (stereo unspecified) , thanks.
[out] 5 µM

----------
- Target System: GTPase KRas (Homo sapiens, UniProt P01116, G12C)
- Protocol: Inhibition of BODIPY loaded KRAS G12C mutant (unknown origin) assessed as inhibition of GDP-GTP exchange rate in presence of SOS1/GppNHp incubated for 2 hr by BODIPY fluorescence assay
Measurement Type: IC50 (nM)
Answer format: numeric, nM implied, no suffix.

Molecule | IC50 (nM)
C=Cc1ncc2n1CCN(c1nc(=O)n(C(C)C)c3nc(-c4c(O)cccc4F)c(F)cc13)C2 | 100

# input for lookup
[in] Item: `C=Cc1ncc2n1CCN(c1nc(OCCN3CCOCC3)nc3c(F)c(-c4cc(O)cc5ccccc45)c(Cl)cc13)C2` Test system: GTPase KRas (Homo sapiens, UniProt P01116, G12C) Read-out: IC50 Value: ?
[out] 100

----------
- Target System: GTPase KRas (Homo sapiens, UniProt P01116, G12C)
- Protocol: Inhibition of KRAS G12C mutant in human MIA PaCa-2 cells assessed as reduction in ERK phosphorylation incubated for 2 to 4 hrs by HTRF assay
- Type: cell-based
- Measurement Parameters: mia paca-2
Measurement Type: pIC50
Keep in mind that pIC50 stands for -log10 of concentration in molar terms.

[in] For the molecule `C=Cc1ncc2n1CCN(c1nc(=O)n(-c3c(C)ccnc3C(C)C)c3nc(-c4c(O)cccc4F)c(F)cc13)C2` , what pIC50 is on record?
[out] 5.30

----------
Below, each entry is listed with its recorded IC50.
- Target System: GTPase KRas (Homo sapiens, UniProt P01116, G12C)
- Protocol: Inhibition of KRAS G12C mutant in human MIA PaCa-2 cells assessed as reduction in ERK phosphorylation incubated for 2 to 4 hrs by HTRF assay
- Type: cell-based
Please state the value followed by its unit.

Some entries whose results are on file:
Molecule | IC50
C=Cc1ncc2n1CCN(c1nc(OCCN3CCOCC3)nc3c(F)c(-c4cc(O)cc5ccccc45)c(Cl)cc13)C2 | 5 µM
C=Cc1ncc2n1CCN(c1nc(OCC3CCCN3C)nc3c(F)c(-c4c(O)cccc4F)c(Cl)cc13)C2 (stereo not given) | 5 µM
C=Cc1ncc2n1CCN(c1nc(OC3CCN(C)CC3)nc3c(F)c(-c4cc(O)cc5ccccc45)c(Cl)cc13)C2 | 5 µM
C=Cc1ncc2n1CCN(c1nc(=O)n(C(C)C)c3nc(-c4c(O)cccc4F)c(F)cc13)C2 | 5 µM

We next turn to a different molecule, shown below.
[in] Dear colleague, I am looking for the recorded IC50 of the following molecule: C=Cc1ncc2n1CCN(c1nc(OCC3CCCN3C)nc3c(F)c(-c4cc(O)cc5ccccc45)c(Cl)cc13)C2 (stereo not given)
[out] 1 µM
